Reported MIC Enterococcus faecalis (GC 6189) values for a set of compounds
test system: Enterococcus sp.; assay: In vitro antibacterial evaluation: minimum inhibitory concentration (MIC), broth dilution method; type: cell-based; conditions: broth dilution, 18 hours at 35° C.
Numeric answer only, unit µg/mL assumed.

# example entries with known answers
# compound, unitAbbrev, valueMeasured
data = [
    ("CC(c1ccccc1)C1NC(=O)CNC(=O)C(CO)NC(=O)C(C(O)C2CNC(=N)N2C2OC(CO)C(O)C(O)C2O)NC(=O)C(C(O)C2CNC(=N)N2)NC(=O)C(Cc2ccc3oc(-c4ccc(OCc5ccccc5)cc4)nc3c2)NC1=O (stereo not drawn) [Example 31]", "µg/mL", 64),
    ("CC(c1ccccc1)C1NC(=O)CNC(=O)C(CO)NC(=O)C(CC2CNC(=N)N2C2OC(CO)C(O)C(O)C2O)NC(=O)C(CC2CNC(=N)N2)NC(=O)C(Cc2ccc3oc(-c4ccc5c(c4)Cc4ccccc4-5)nc3c2)NC1=O (stereo not drawn) [Example 42]", "µg/mL", 8),
    ("CC(c1ccccc1)C1NC(=O)CNC(=O)C(CO)NC(=O)C(C(O)C2CNC(=N)N2C2OC(CO)C(O)C(O)C2O)NC(=O)C(C(O)C2CNC(=N)N2)NC(=O)C(Cc2ccc3oc(C=C(c4ccccc4)c4ccccc4)nc3c2)NC1=O (stereo not drawn) [Example 39]", "µg/mL", 16),
]

### Prompt Identify the measured MIC Enterococcus faecalis (GC 6189) of CC(c1ccccc1)C1NC(=O)CNC(=O)C(CO)NC(=O)C(C(O)C2CNC(=N)N2C2OC(CO)C(O)C(O)C2O)NC(=O)C(C(O)C2CNC(=N)N2)NC(=O)C(Cc2ccc3oc(-c4ccc(Br)cc4)nc3c2)NC1=O (stereo not drawn) [Example 27] for Enterococcus sp..
### Response 32

### Prompt Check CC(c1ccccc1)C1NC(=O)CNC(=O)C(CO)NC(=O)C(C(O)C2CNC(=N)N2C2OC(CO)C(O)C(O)C2O)NC(=O)C(C(O)C2CNC(=N)N2)NC(=O)C(Cc2ccc3oc(SCc4ccc(-c5ccccc5)cc4)nc3c2)NC1=O (stereo not drawn) [Example 47] too.
### Response 32
